These measurements were taken from patent US20120095193A1.

SYSTEM: T1, human ADAMTS5 (human, UniProt Q9UNA0 262-622, limits assumed)
T1 construct: Octet and ELISA used 'recombinant human ADAMTS5'; also called recombinant human ADAMTS5; ADAMTS5 (R&D Systems 2198-AD)
T1 sequence: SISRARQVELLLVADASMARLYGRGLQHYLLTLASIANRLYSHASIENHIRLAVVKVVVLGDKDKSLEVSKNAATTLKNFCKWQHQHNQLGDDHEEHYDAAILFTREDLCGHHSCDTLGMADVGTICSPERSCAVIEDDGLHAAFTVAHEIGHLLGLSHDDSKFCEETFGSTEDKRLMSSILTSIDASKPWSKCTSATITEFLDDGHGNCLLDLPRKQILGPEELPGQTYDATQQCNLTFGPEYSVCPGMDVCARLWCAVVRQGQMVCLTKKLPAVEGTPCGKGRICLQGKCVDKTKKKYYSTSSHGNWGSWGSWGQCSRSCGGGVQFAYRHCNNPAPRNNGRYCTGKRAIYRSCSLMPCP
MEASUREMENT_NOTES: Biacore, mAb from culture supernatant captured on anti-human IgG, ADAMTS5 (R&D 2198-AD) at 64 nM, 1:1 fit
Note to self: use T only for kon readings below 700000 M⁻¹ s⁻¹; a reading exactly at 700000 M⁻¹ s⁻¹ still gets F.

As a guide, the following entries are already answered.
binder="BPC1645 (antibody, human IgG1, kappa, V domains shown, Humanized, human gamma 1 / kappa; also called 7B4 H4L1) VH: EVQLVESGGGLVQPGGSLRLSCAASGFTSSDAWMDWVRQAPGKGLEWVAEIRNKANNHARHYAESVKGRFTISRDDAKNSLYLQMNSLRAEDTAVYYCTRTYYYGSSYGYCDVWGQGTLVTVSS VL: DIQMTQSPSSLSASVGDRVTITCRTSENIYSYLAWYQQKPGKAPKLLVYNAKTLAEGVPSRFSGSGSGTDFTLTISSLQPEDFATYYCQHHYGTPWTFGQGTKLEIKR" cat=F
binder="BPC1657 (antibody, human IgG1, kappa, V domains shown, Humanized, human gamma 1 / kappa; also called 12F4 H2L0) VH: EVQLLESGGGLVQPGGSLRLSCAASGFTFSDAWMDWVRQAPGKGLEWVSEIRHKANDHAIFYDESVKGRFTISRDDSKNTLYLQMNSLRAEDTAVYYCTSPFAYWGQGTLVTVSS VL: DIQMTQSPSSLSASVGDRVTITCKASQSVGTTIVWYQQKPGKAPKLLIYSASNRHTGVPSRFSGSGSGTDFTLTISSLQPEDFATYYCQQYTSYPFTFGQGTKLEIKR" cat=T
binder="BPC1639 (antibody, human IgG1, kappa, V domains shown, Humanized, human gamma 1 / kappa; also called 7B4 H5L0) VH: EVQLVESGGGLVQPGGSLRLSCAASGFTSSDAWMDWVRQAPGKGLEWVAEIRNKANNHARHYAESVKGRFTISRDNAKNSVYLQMNSLRAEDTAVYYCTRTYYYGSSYGYCDVWGQGTLVTVSS VL: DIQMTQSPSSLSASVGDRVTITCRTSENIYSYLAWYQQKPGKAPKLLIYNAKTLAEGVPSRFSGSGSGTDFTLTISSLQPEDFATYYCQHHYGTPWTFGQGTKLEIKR" cat=F
binder="BPC1658 (antibody, human IgG1, kappa, V domains shown, Humanized, human gamma 1 / kappa; also called 12F4 H3L0) VH: EVQLLESGGGLVQPGGSLRLSCAASGFTFSDAWMDWVRQAPGKGLEWVAEIRHKANDHAIFYDESVKGRFTISRDNSKNTVYLQMNSLRAEDTAVYYCTSPFAYWGQGTLVTVSS VL: DIQMTQSPSSLSASVGDRVTITCKASQSVGTTIVWYQQKPGKAPKLLIYSASNRHTGVPSRFSGSGSGTDFTLTISSLQPEDFATYYCQQYTSYPFTFGQGTKLEIKR" cat=T

For the next question, use this binder.
Prompt: Bench note: check whether BPC1654 (antibody, human IgG1, kappa, V domains shown, Humanized, human gamma 1 / kappa; also called 7B4 H6L2) VH: EVQLVESGGGLVQPGGSLRLSCAASGFTSSDAWMDWVRQAPGKGLEWVAEIRNKANNHARHYAESVKGRFTISRDDAKNSVYLQMNSLRAEDTAVYYCTRTYYYGSSYGYCDVWGQGTLVTVSS VL: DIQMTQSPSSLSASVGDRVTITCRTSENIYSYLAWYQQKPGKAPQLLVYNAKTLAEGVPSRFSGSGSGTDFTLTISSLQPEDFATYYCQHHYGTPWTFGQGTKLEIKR shows kon below 700000 M⁻¹ s⁻¹
Response: F
